Source: ChEMBL document CHEMBL1137253

experiment: AUC (0-infinity) in rat at 1 mg/kg, iv; format: ADME, organism-based; set-up: time infinity, dose 1 mg/kg, route intravenous; settings: plasma
assay endpoint: AUC(0-inf)

Reported AUC(0-inf) of `CCCn1c2ccc(NC(=O)OC(C)C)cc2c2c3c(c4c(c21)CCc1nn(C)cc1-4)C(=O)NC3` : 1710 ng·h/mL

---

test: Clearance in rat at 1 mg/kg, iv; assay type: ADME, organism-based; set-up: dose 1 mg/kg, route intravenous; conditions: in vivo
assay endpoint: clearance (mL/min/kg)
One number for each entry, in mL/min/kg.

Reported clearance of `CCCn1c2ccc(NC(=O)OC(C)C)cc2c2c3c(c4c(c21)CCc1nn(C)cc1-4)C(=O)NC3` : 10.5
